Experiment: Potassium salt excretion in conscious rat at the dose of 0.3 mg/kg expressed as urinary excretion in treated rats/urinary excretion in control rats
Assay type: ADME, organism-based, Urine
Parameters: dose 0.3 mg/kg
Details: in vivo
parameter: K+ excretion
Form field (numeric): enter value without unit.

| compound | K+ excretion |
| --- | --- |
| Oc1nc(O)c(Br)c(-c2ccccc2)n1 | 1 |
| NS(=O)(=O)c1cc2c(cc1Cl)NCNS2(=O)=O [HYDROCHLOROTHIAZIDE] | 1.2 |
| Cn1c(N)nc(-c2ccccc2)c(Br)c1=O | 1.1 |
| Cn1c(N)nc(-c2ccccc2)c(I)c1=O | 1.1 |
| Nc1nc(=O)c(Br)c(-c2ccccc2)[nH]1 [BROPIRIMINE] | 1.1 |
| NS(=O)(=O)c1cc(C(=O)O)c(NCc2ccco2)cc1Cl [FUROSEMIDE] | 1 |

IN: Item Cn1c(-c2ccccc2)c(Cl)c(=O)[nH]c1=O has what recorded K+ excretion?
OUT: 0.9

###

Assay: Sodium salt excretion in conscious rat at the dose of 3.0 mg/kg expressed as urinary excretion in treated rats/urinary excretion in control rats
Assay type: ADME, organism-based, Urine
Set-up: dose 3 mg/kg
Conditions: in vivo
Listing of entries alongside the reported Na+ excretion.
Form field (numeric): enter value without unit.

Illustrative cases are given below, each with its answer.
| compound | Na+ excretion |
| --- | --- |
| Cn1c(N)nc(-c2ccccc2)c(I)c1=O | 1.6 |
| NS(=O)(=O)c1cc2c(cc1Cl)NCNS2(=O)=O [HYDROCHLOROTHIAZIDE] | 2.1 |
| Oc1nc(O)c(Br)c(-c2ccccc2)n1 | 1 |
| Cn1c(N)nc(-c2ccccc2)c(Br)c1=O | 1.3 |
| NS(=O)(=O)c1cc(C(=O)O)c(NCc2ccco2)cc1Cl [FUROSEMIDE] | 1.1 |

IN: Item Nc1nc(=O)c(Br)c(-c2ccccc2)[nH]1 has what recorded Na+ excretion?
OUT: 1.5

IN: Subsequent entry: Cn1c(-c2ccccc2)c(Cl)c(=O)[nH]c1=O
OUT: 0.9

###

Listing of entries alongside the reported K+ excretion.
Experiment: Potassium salt excretion in conscious rat at the dose of 10 mg/kg expressed as urinary excretion in treated rats/urinary excretion in control rats
Assay type: ADME, organism-based, Urine
Parameters: dose 10 mg/kg
Details: in vivo
Form field (numeric): enter value without unit.

Illustrative cases are given below, each with its answer.
| molecule | parameter | val |
| --- | --- | --- |
| NS(=O)(=O)c1cc2c(cc1Cl)NCNS2(=O)=O [HYDROCHLOROTHIAZIDE] | K+ excretion | 1.5 |
| NS(=O)(=O)c1cc(C(=O)O)c(NCc2ccco2)cc1Cl [FUROSEMIDE] | K+ excretion | 1.6 |
| Cn1c(N)nc(-c2ccccc2)c(I)c1=O | K+ excretion | 1.4 |
| Cn1c(-c2ccccc2)c(Cl)c(=O)[nH]c1=O | K+ excretion | 1.3 |
| Nc1nc(=O)c(Br)c(-c2ccccc2)[nH]1 [BROPIRIMINE] | K+ excretion | 1.3 |
| Oc1nc(O)c(Br)c(-c2ccccc2)n1 | K+ excretion | 0.9 |

Note: attention shifts to another entry.
IN: Item Cn1c(N)nc(-c2ccccc2)c(Br)c1=O has what recorded K+ excretion?
OUT: 1.7
